# Lookup of reported CC50 at 3 days keyed by entry
Experiment: HCV Replicon 2A CC50, calcein AM (Example Q)
Assay type: cell-based
Settings: HCV replicon cells, calcein AM fluorescence, read-out: HCV Replicon 2A CC50 (nM) (per Ex. Q)

Here is how some compounds turned out for CC50 at 3 days.
compound	CC50 at 3 days
CCCCCCCCCCCCCCCCC[C@@H](COP(=O)(O)OC[C@@]1(C#N)O[C@@H](c2ccc3c(N)ncnn23)[C@H](O)[C@@H]1O)OCc1cc(F)cc(C#N)c1 [Compound 74]	35800 nM
CCCCCCCCCCCCCCCCCCOC[C@@H](COP(=O)(O)OC[C@@]1(C#N)O[C@@H](c2ccc3c(N)ncnn23)[C@H](O)[C@@H]1O)Oc1ccc(C#N)nc1 [Compound 72]	> 44400 nM
CCCCCCCCCCCCCCCCCCC[C@H](COP(=O)(O)OC[C@@]1(C#N)O[C@@H](c2ccc3c(N)ncnn23)[C@H](O)[C@@H]1O)OCc1ccc(-n2cncn2)c(C#N)c1 [Compound 30]	42400 nM
CCCCCCCCCCCCCCCCCCOC[C@H](COP(=O)(O)OC[C@@]1(C#N)O[C@@H](c2ccc3c(N)ncnn23)[C@H](O)[C@@H]1O)OCc1cccc(C#N)n1 [Compound 68]	> 44400 nM
CCCCCCCCCCCCCCCCCCCC[C@@H](COP(=O)(O)OC[C@@]1(C#N)O[C@@H](c2ccc3c(N)ncnn23)[C@H](O)[C@@H]1O)OCc1cc(F)cc(C#N)c1 [Compound 70]	42700 nM

Please look up its CC50 at 3 days: CCCCCCCCCCCCCCCCC[C@H](COP(=O)(O)OC[C@@]1(C#N)O[C@@H](c2ccc3c(N)ncnn23)[C@H](O)[C@@H]1O)OCc1cc(F)cc(C#N)c1 [Compound 36]
> 44400 nM
